Exercise: state measured EC50(wt)/EC50(mut) for each of the binders provided.
# Test system: ErbB-3 receptor-Ig fusion (homodimer) (human, UniProt P21860 20-643; P21860 20-636)
# Sequence (P21860 other isoform, or with tags, fused parts or gaps): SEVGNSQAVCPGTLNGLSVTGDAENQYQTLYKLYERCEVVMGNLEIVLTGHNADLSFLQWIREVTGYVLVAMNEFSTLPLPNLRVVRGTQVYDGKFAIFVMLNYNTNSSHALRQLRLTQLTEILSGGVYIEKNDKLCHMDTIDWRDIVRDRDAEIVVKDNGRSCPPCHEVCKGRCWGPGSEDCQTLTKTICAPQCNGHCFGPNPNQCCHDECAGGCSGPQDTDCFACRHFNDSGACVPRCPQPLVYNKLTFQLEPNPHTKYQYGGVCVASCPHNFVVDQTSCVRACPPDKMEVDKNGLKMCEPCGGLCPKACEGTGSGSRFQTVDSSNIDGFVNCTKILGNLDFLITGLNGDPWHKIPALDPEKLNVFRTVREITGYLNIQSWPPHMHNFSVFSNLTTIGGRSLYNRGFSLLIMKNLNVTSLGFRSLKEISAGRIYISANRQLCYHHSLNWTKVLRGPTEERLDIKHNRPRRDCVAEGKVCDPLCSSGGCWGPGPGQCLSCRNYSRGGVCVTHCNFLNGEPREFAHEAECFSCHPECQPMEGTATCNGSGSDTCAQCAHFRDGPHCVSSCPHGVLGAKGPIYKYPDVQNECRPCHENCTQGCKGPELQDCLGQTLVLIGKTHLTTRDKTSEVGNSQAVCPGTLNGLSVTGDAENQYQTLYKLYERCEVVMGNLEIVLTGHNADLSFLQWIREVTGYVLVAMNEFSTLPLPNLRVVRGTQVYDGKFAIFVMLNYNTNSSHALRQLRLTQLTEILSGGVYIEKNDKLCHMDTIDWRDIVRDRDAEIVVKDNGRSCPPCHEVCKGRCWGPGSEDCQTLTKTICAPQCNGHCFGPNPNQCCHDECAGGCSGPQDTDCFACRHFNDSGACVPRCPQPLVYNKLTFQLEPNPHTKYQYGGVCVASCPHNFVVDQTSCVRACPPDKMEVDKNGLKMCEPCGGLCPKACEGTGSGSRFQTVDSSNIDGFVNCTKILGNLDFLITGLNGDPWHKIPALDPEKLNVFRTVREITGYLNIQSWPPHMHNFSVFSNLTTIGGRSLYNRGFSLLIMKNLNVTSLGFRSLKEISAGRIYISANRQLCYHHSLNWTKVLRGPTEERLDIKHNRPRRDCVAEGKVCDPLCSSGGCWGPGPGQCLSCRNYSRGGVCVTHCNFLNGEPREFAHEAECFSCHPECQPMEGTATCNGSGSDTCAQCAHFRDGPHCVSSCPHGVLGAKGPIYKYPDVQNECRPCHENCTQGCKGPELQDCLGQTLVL
# Test details: phage ELISA, soluble ErbB-3-Ig as competitor
Ends that are not written are not given here.
All answers are understood in ratio, so give the number only.

Return reported EC50(wt)/EC50(mut); argument: SHLVKCGEEREGFCVNGGECYRVKTYGYLMCKCPNEFTGDRCQNYVIAS (ligand, not fully specified; cysteine pairing not given here, not shown: Display carrier only: (GGGS)3 linker and the M13 pIII C-terminal fragment from residue 323) [combination variant HRG62, phage-displayed] 32

Reported EC50(wt)/EC50(mut), binder SHLVKCGEEREGFCVNGGECFMVKDYGYLMCKCPNEFTGDRCQNYVIAS (ligand, not fully specified; cysteine pairing not given here, not shown: Display carrier only: (GGGS)3 linker and the M13 pIII C-terminal fragment from residue 323) [combination variant HRG61, phage-displayed] : ____ 29

Dear colleague, I am looking for the recorded EC50(wt)/EC50(mut) of the following binder: SHLVKCAEKEKTFCVNGGECFMVKDTHYRMCKCPNEFTGDRCQNYVMAS (ligand, not fully specified; cysteine pairing not given here, not shown: Display carrier only: the (GGGS)3 linker and the M13 pIII C-terminal fragment from residue 323) [HRG-β1 EGF variant E6, phage-displayed] 6.6

Which value of EC50(wt)/EC50(mut) has been reported for SHLVKCAEKEKTFCVNGGECYRVKTYGYLMCKCPNEFTGDRCQNYVMAS (ligand, not fully specified; cysteine pairing not given here, not shown: Display carrier: (GGGS)3 linker and M13 pIII C-terminal fragment from residue 323) [combination variant HRG57, phage-displayed] in the records? 24
